Values compiled from patent US12643882B2.

The reader will find reported EC50 values listed item by item below.
Test system: hMPV-GFP virus
Test: microbe, parasite or virus in culture
Type: cell-based, human metapneumovirus
Conditions: human metapneumovirus, Vero, 48 h, read-out: hMPV EC50, VERO cells infected with hMPV-GFP, 48 hrs, GFP-expressing cells counted
Experimental Endpoint: EC50

Molecule	System Tested	Result
COc1nn(-c2ncccn2)cc1C(=O)N1C[C@@H]2[C@H](C1)[C@H]2Oc1cc(C(C)(C)N)cc(N2CCC(C)(C)CC2)n1 [Example 122]	hMPV-GFP virus	> 100 nM
Cn1nc(-c2cccc(F)n2)cc1C(=O)N1C[C@@H]2[C@H](C1)[C@H]2Oc1cc(C(C)(C)N)cc(-c2ccc(F)cc2)n1 [Example 50]	hMPV-GFP virus	10 to 100 nM
Cc1nc(-c2ncccn2)sc1C(=O)N1C[C@H]2[C@H](Oc3cc(C(C)(C)N)cc(-c4ccc(F)cc4)n3)[C@@]2(C)C1 (single isomer, unassigned; enantiomer 2) [Example 103B]	hMPV-GFP virus	10 to 100 nM

###

The reader will find reported EC50 values listed item by item below.
Test system: RSV-A2-GFP virus
Experiment: microbe, parasite or virus in culture
Format: cell-based, Human Respiratory Syncytial Virus
Conditions: Calu-1 cells infected with RSV-A2-GFP, 96 hrs, GFP-expressing cells counted; read-out: RSV EC50
Experimental Endpoint: EC50

Molecule	Experimental Endpoint	Result
Cc1nc(-c2ncccn2)sc1C(=O)N1C[C@@H]2[C@H](C1)[C@H]2Oc1cc(C(C)(C)N)cc(-c2ccc(C(C)(F)F)cc2)n1 [Example 26]	EC50	< 0.01 µM
Cc1nc(-c2ncccn2)sc1C(=O)N1C[C@@H]2[C@H](C1)[C@H]2Oc1cc(C(C)(C)N)cc(-c2ccc(F)c(F)c2)n1 [Example 15]	EC50	< 0.01 µM
Cc1nc(-c2ncccn2)sc1C(=O)N1C[C@@H]2C(Oc3cc(C(C)(C)N)cc(C4=CCC(C)CC4)n3)[C@@H]2C1 (mixture of isomers) [Example 46]	EC50	< 0.01 µM

###

The reader will find reported EC50 values listed item by item below.
Test system: RSV-A2-GFP virus
Experiment: microbe, parasite or virus in culture
Assay type: cell-based, Human Respiratory Syncytial Virus
Settings: Calu-1 cells infected with RSV-A2-GFP, 96 hrs, GFP-expressing cells counted; read-out: RSV EC50
Experimental Endpoint: EC50

Molecule	Result
CC(C)(N)c1cc(O[C@H]2[C@@H]3CN(C(=O)c4cn(-c5ncccn5)nc4C4CC4)C[C@@H]32)nc(-c2ccc(F)cc2)c1 [Example 65]	< 10 nM
Cn1nc(-c2ncccn2)cc1C(=O)N1C[C@@H]2[C@H](C1)[C@H]2Oc1cc(C(C)(C)N)cc(-c2ccc(C(F)(F)F)cc2)n1 [Example 59]	< 10 nM
Cc1nc(-c2ncccn2)sc1C(=O)N1C[C@@H]2[C@H](C1)[C@H]2Oc1cc(C(C)(C)N)cc(-c2ccc(C(F)(F)F)cc2)n1 [Example 27]	< 10 nM
Cc1nc(-c2ncccn2)[nH]c1C(=O)N1C[C@@H]2[C@H](C1)[C@H]2Oc1cc(C(C)(C)N)cc(-c2ccc(F)cc2)n1 [Example 75]	10 to 100 nM
Cc1cccc(-c2cc(C(=O)N3C[C@@H]4[C@H](C3)[C@H]4Oc3cc(C(C)(C)N)cc(-c4ccc(F)cc4)n3)n(C)n2)n1 [Example 51]	< 10 nM
Cc1nc(-c2ncccn2)sc1C(=O)N1C[C@@H]2[C@H](C1)[C@H]2Oc1cc(C(C)(C)N)cc(-c2ccc(C(F)(F)F)c(F)c2F)n1 [Example 31]	< 10 nM
CC(C)(N)c1cc(O[C@H]2[C@@H]3CN(C(=O)c4cn(-c5ncccn5)nc4N)C[C@@H]32)nc(-c2ccc(F)cc2)c1 [Example 70]	< 10 nM
CC(O)c1nn(-c2ncccn2)cc1C(=O)N1C[C@@H]2C(Oc3cc(C(C)(C)N)cc(-c4ccc(F)c(F)c4)n3)[C@@H]2C1 (single isomer, unassigned; enantiomer 1) [Example 96A]	< 10 nM
CC(C)(N)c1cc(O[C@H]2[C@@H]3CN(C(=O)c4cn(-c5ncccn5)nc4OC(F)F)C[C@@H]32)nc(-c2ccc(F)cc2)c1 [Example 69]	< 10 nM
CCc1nn(-c2ncccn2)cc1C(=O)N1C[C@@H]2[C@H](C1)[C@H]2Oc1cc(C(C)(C)N)cc(-c2ccc(F)cc2)n1 [Example 64]	< 10 nM
Cc1nn(-c2ncccn2)cc1C(=O)N1C[C@@H]2[C@H](C1)[C@H]2Oc1cc(C(C)(C)N)cc(-c2ccc3c(c2)CC3(F)F)n1 [Example 99]	< 10 nM
CC(O)c1nn(-c2ncccn2)cc1C(=O)N1C[C@@H]2C(Oc3cc(C(C)(C)N)cc(-c4ccc(F)c(F)c4)n3)[C@@H]2C1 (single isomer, unassigned; enantiomer 2) [Example 96B]	< 10 nM
Cc1nc(-c2ncccn2)sc1C(=O)N1C[C@@H]2[C@H](C1)[C@H]2Oc1cc(C(C)(C)N)cc(-c2ccc(C3CC3)cc2)n1 [Example 22]	< 10 nM
Cc1nn(-c2ncccn2)cc1C(=O)N1C[C@@H]2[C@H](C1)[C@H]2Oc1cc(C(C)(C)N)cc(N2CCC(C)(C)CC2)n1 [Example 100]	< 10 nM
Cc1nn(-c2ncccn2)c(C)c1C(=O)N1C[C@@H]2[C@H](C1)[C@H]2Oc1cc(C(C)(C)N)cc(-c2ccc(F)cc2)n1 [Example 73]	< 10 nM
Cc1nc(-c2ncccn2)sc1C(=O)N1C[C@@H]2[C@H](C1)[C@H]2Oc1cc(C(C)(C)N)cc(-c2ccc(OC(F)F)cc2)n1 [Example 24]	< 10 nM
Cc1nc(-c2ncccn2)sc1C(=O)N1C[C@@H]2C(Oc3cc(C(C)(C)N)cc(C4=CCC(C(F)(F)F)CC4)n3)[C@@H]2C1 (mixture of isomers) [Example 47]	< 10 nM
Cn1nc(-c2ncccn2)cc1C(=O)N1C[C@@H]2[C@H](C1)[C@H]2Oc1cc(C(C)(C)N)cc(-c2ccc(F)cc2Cl)n1 [Example 57]	< 10 nM
Cn1nc(-c2ncccn2)cc1C(=O)N1C[C@@H]2[C@H](C1)[C@H]2Oc1cc(C(C)(C)N)cc(-c2ccc(Cl)cc2)n1 [Example 58]	< 10 nM
Cc1nn(-c2ncccn2)cc1C(=O)N1C[C@@H]2[C@H](C1)[C@H]2Oc1cc(C(C)(C)N)cc(N2CCC(C(F)(F)F)CC2)n1 [Example 102]	< 10 nM
Cc1nc(-c2ncccn2)sc1C(=O)N1C[C@@H]2[C@H](C1)[C@H]2Oc1cc(C(C)(C)N)cc(-c2ccccc2)n1 [Example 20]	< 10 nM
Cc1nc(-c2ncccn2)sc1C(=O)N1C[C@@H]2[C@H](C1)[C@H]2Oc1cc(C(C)(C)N)cc(-c2ccc(F)c(F)c2F)n1 [Example 14]	< 10 nM
Cc1nc(-c2ncccn2)sc1C(=O)N1C[C@@H]2[C@H](C1)[C@H]2Oc1cc(C(C)(C)N)cc(-c2ccc3c(c2)CCO3)n1 [Example 34]	< 10 nM
CC(C)(N)c1cc(O[C@H]2[C@@H]3CN(C(=O)c4cn(-c5ncccn5)nc4C(F)F)C[C@@H]32)nc(-c2ccc(F)c(F)c2)c1 [Example 91]	< 10 nM
